biological target: PI3k δ (Homo sapiens); construct: Full length p110 subunits of PI3k α, β and δ; polyHis (N); made in house; host or cells: Sf9 insect cells (baculovirus); experiment: biochemical; type: biochemical; conditions: read-out: PI3k δ Ki
Sequence (O00329 whole entry): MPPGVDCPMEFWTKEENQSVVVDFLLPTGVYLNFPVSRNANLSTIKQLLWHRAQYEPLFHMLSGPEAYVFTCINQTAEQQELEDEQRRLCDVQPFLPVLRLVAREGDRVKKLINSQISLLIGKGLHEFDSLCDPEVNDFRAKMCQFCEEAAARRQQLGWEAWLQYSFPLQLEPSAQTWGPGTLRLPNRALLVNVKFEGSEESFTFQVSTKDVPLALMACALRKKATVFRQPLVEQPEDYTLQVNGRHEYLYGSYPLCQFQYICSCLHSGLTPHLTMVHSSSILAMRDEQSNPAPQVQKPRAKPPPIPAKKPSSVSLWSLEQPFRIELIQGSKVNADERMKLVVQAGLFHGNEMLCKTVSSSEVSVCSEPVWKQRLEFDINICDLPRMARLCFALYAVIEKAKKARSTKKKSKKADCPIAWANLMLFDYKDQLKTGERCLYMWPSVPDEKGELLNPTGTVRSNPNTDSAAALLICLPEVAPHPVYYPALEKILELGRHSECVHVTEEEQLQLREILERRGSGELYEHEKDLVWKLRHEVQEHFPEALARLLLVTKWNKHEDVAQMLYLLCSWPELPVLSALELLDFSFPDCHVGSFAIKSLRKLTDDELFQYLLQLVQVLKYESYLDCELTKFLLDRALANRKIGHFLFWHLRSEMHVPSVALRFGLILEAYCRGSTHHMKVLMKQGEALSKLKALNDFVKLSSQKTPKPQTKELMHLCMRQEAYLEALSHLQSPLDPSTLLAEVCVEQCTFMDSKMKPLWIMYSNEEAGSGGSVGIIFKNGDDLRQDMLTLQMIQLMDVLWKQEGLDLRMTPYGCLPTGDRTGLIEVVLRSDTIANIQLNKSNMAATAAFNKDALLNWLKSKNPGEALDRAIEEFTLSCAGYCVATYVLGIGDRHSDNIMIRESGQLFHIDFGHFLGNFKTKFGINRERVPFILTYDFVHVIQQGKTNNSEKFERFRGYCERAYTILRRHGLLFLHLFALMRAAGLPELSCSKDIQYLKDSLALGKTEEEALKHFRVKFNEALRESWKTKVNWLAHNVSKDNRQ
Sequence (P27986 whole entry partner): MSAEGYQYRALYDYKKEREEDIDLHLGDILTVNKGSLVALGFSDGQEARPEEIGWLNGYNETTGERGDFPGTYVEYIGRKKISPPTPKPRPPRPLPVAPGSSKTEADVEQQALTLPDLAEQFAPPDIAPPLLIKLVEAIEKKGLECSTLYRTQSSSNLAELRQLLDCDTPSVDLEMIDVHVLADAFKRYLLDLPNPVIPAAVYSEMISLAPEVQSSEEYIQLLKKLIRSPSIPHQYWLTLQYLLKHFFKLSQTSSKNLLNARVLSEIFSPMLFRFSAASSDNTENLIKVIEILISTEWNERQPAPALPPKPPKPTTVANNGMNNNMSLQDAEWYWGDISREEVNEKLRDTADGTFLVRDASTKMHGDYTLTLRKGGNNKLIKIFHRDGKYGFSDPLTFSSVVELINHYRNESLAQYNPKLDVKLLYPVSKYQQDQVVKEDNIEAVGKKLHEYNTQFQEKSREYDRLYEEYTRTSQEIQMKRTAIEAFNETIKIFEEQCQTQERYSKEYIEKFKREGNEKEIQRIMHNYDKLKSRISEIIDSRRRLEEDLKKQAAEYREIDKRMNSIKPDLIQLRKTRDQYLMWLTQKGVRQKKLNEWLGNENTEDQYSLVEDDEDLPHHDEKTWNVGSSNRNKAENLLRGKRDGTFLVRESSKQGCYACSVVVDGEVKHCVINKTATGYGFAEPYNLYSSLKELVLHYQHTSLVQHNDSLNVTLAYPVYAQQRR
Property name: pKi
Expect pKi as a plain number equal to -log10 of the molar concentration.

Field: example entries. Status: answers known.
- Entry smiles: "C[C@@H](Nc1ncnc(N)c1C#N)c1nc2c(F)cc(F)cc2n1-c1cccnc1"
  pKi: 5.89
- Entry smiles: "C[C@H](Nc1ncnc(N)c1C#N)c1nc2cccc(S(C)(=O)=O)c2[nH]1"
  pKi: 7.34

Field: next molecule
// returns reported pKi for input C[C@H](Nc1ncnc(N)c1C#N)c1nc2c(F)cc(F)cc2n1-c1cccnc1 8.17
